system: MS2 coat protein; assay: apparent Kd, MS2 coat protein; higher = weaker binding; RNA-MaP array; FMN 200 µM where present; details: ligand present: flavin mononucleotide; designed as: ON switch for flavin mononucleotide
Quantity: apparent Kd
Report the figure along with its unit, number first.

A selection of reference data follows.
GUAGCAUACCGAGGAUAUUCAGGGCGUAAAUAAACAUGAGGAUCACCCAUGUGGCGAAAGCCUAGGGAGAAGGCGGAAUGCUAC	16.8 nM
GCCAUCGCAUGAGGAUAUGCUCCGGUUUCCGGAGCAGAAGGCAUGUAAUAAGACAUGAGGAUCACCCAUGUAGUUAAGAUGGCA	5.55 nM
GGAUAUAUACAGGAGGAUAUGAGAACAAAGACAUGAGGAUCACCCAUGUACAAAAGGUGGAACAAUCAGAAGGUCUAAACAACAAA	69 nM
GCUGGGUAGGCAGGAUAUCCUCGCGCAAACACAUGAGGAUCACCCAUGUACACAAAACGUGAUAUGGAGAAGGGCCGACCCACA	5.72 nM
UCACUCAAGUUAGGAUAUGGAUCGGAAAACGAUCCAGAAGGAACAUGGGAACAUGAGGAUCACCCAUGUUCCAGAAACGAGUGA	155 nM

## Task apparent Kd lookup needed for UUUCGGCUCGAGAAGGUCUAUCGACAUGAGGAUCACCCAUGUUGCCAUGGAAGGAUAUCGAAGGCAGCACGGGAAAUAGUCCGG , thanks.
## Result 53.3 nM

## Task How about UUUAUAAGAAAAUAAACGAAGUGGCCAGAAGGUGAAUGCCACAUGAGGAUCACCCAUGUUUCGAUCAAGGAUAUGGUUUCUCAC ?
## Result 107 nM

* * *

Each record here notes measured apparent Kd.
tested on: MS2 coat protein; test: apparent Kd, MS2 coat protein; higher = weaker binding; RNA-MaP array; settings: designed as: OFF switch for flavin mononucleotide; no ligand
Use nM as the unit, but write only the number.

Take a look at these entries with their results.
UGAGUCUAAGGAUAUGCUGCCGACAACAUGAGGAUCACCCAUGUCUUUCGUUGUUCGCCGGCAGAAGGUAGCAAUU	561
CACGCCAUAGGAUAUACAUGAGGAUCACCCAUGUGGUGGUAGCAGCCAUAACGGUACAGUAGAAGGAUGUGCGA	274
UGGAAUGUGCAAGGAUAUUGGCGGUGUGGAAUAGAAUCACUCGAACAUGAGGAUCACCCAUGUUGCAAGAAGGUGCGGGAACGA	38.2
AUCAAUAAUGUUAGGAUAUCUAGCUAUUUUAUGGUAGAGAAGGAACAUGAGGAUCACCCAUGUUGAGCUAUAUU	8.45
GAAAACGAUCCCAAUACAUGAGGAUCACCCAUGUGGUGCAGUCAGGAUAUCACUACACCAAAACUUGAGAAGGGACACAUCGCC	347

## Task Tell me the measured apparent Kd of AGGAGCGGAAUAGGAUAUUGUAGAUAUAUCAAACAAGAAGGAUUAGCUAACAUGAGGAUCACCCAUGUGGGAUCAAACUCACUC , please.
## Result 82.7

## Task Try this sequence too: UCGACAUGAGGAUCACCCAUGUGCCUCGGAUGUCGUUAGAGUGAGGAUAUGUCACACCAAAACGUACAGAAGGCACUUAUUAGA
## Result 296

## Task Another sequence: CGUAUAGCAGGAUAUUGCAGCCGGCACAUGAGGAUCACCCAUGUCGAUGGUCCGCCAUAGCAAGAAGGGCUAGUAG
## Result 85.7

## Task Can you handle AAUGAAAAGCAGAAGGCCUUAGCAAGUCGUAGAGGAGGAUAUGCGUACGCGGGUUGGCCAACAUGAGGAUCACCCAUGUCACCA next?
## Result 22.4

## Task Then what about the sequence AUUACAGACUACGGCGAUACAUGAGGAUCACCCAUGUCGAGUUAGGAUAUGCAACAAUACGGCCUGCAGAAGGAACCAAGAGGG ?
## Result 35.1

## Task Similarly, AAAGCAGUAGGAUAUACAGUCAUCCGACAGAUAGCGUAAAGACAUGAGGAUCACCCAUGUAGAAGGACUGUAAA ?
## Result 6.35

## Task Also, GACAGGAAAGGAUAUACAAAAUAGAUCAAACGCACACAAAGACAUGAGGAUCACCCAUGUAGAAGGUACUGACA please.
## Result 11.3

## Task Param item: AUAAUCAAAGGAUAUGGCUAAGCACACAUGAGGAUCACCCAUGUGAUCGUUCGUACAGUUCCAGAAGGUUGGUCCA
## Result 15

## Task What would you report for CGGGCACAUGAGGAUCACCCAUGUAAGGAUAUGAACAGUUUUCACAGAGUUUCACUAUUCAGAAGGUACGUUUC ?
## Result 24.2

## Task // same read-out, input: UCCUCGCACGAGAAGGCAAGCCGAGAAACACCUUGAGGAUAUCGUCGACAGACCACCGGGACAUGAGGAUCACCCAUGUGGGCC
## Result 75.2

## Task And the next one, AAUAGAGCACUAGGAUAUGUUUCGUGUGCAGGUGGACAUGAGGAUCACCCAUGUAUAUGUUCAAGACAGAAGGAGACAGAUGAA ?
## Result 59.2

## Task Query UAGAGCGGCAACAUGAGGAUCACCCAUGUGGGCGAUGAGGCUCAGGAUAUACACCACCGCUGGACGUAGAAGGGAGACUCGCCG next
## Result 41.1

* * *

system: MS2 coat protein; experiment: apparent Kd, MS2 coat protein; higher = weaker binding; RNA-MaP array; conditions: ligand present: flavin mononucleotide; designed as: OFF switch for flavin mononucleotide
Quantity: apparent Kd (µM)
The answer is to be given in µM; state only the numeric part.

Please review the entries below; each comes with its answer.
UGACCACAUGAGGAUCACCCAUGUCAGGAUAUAGGUACACUGGUACAGCCUUUUCGGCCUAGAAGGGACUCUCU	0.00842
GUCCUUAUAACAUGAGGAUCACCCAUGUAAUUCAAUCUGCGAGAGGAUAUGUCUGAGCAUCCCACACAGAAGGCUCCGGAACAG	0.0201
UACAUGAGGAUCACCCAUGUCAAUUGUAGAUCGCUCAACGGCAGAAGGCGCAACCCGAUCGGGAGCGAGGAUAUGCCUCGUUAA	0.0271
CCGACCCAAGGAUAUACAUGAGGAUCACCCAUGUAUAAAAUAUACCAAGGUAAAAUAUGUAGAAGGAGGAUAUG	0.00617
ACCAUGUAAGGAUAUCACAAGUUGAGUAGUUCGUUUGGGUGUGAGAAGGUACAUGAGGAUCACCCAUGUUCUGG	0.237

## Task Observed apparent Kd on MS2 coat protein for AAAGCAGUAGGAUAUACAGUCAUCCGACAGAUAGCGUAAAGACAUGAGGAUCACCCAUGUAGAAGGACUGUAAA , please.
## Result 0.00628

## Task Again, but for CUGAAGUAAGGAUAUAUAUACCAUAGACCAUUAAAGACAUUAUAGAAGGUACAUGAGGAUCACCCAUGUGGGAA
## Result 0.0264

* * *

test system: MS2 coat protein; assay: apparent Kd, MS2 coat protein; higher = weaker binding; RNA-MaP array; details: ligand present: flavin mononucleotide; designed as: ON switch for flavin mononucleotide
Each record here notes measured apparent Kd.
Dear colleague, please return just the value in nM, with no unit written.

A selection of reference data follows.
AGGCGCAACGUAGGAUAUACCGGCAUUGUCCAAGUAGAAGGACGUUGUGAUCGCUAGGUAACAUGAGGAUCACCCAUGUCUUAC	5.8
UGGUGGAAGACAUGAGGAUCACCCAUGUUCGUAGAUGCCGAGCAGGAUAUUAGAUCAUAAACCAGUAAGAAGGGCUGAGUGUCU	26.1

## Task Please state recorded apparent Kd (tested on MS2 coat protein) of GACAUGAGGAUCACCCAUGUAUGUGGGACUGCGCAUUGAUACUAGGAUAUCUGCCCAGACGUGUGAGAGAAGGAGUACGGUAAA
## Result 56

## Task And then UAGACAAAACAGAAGGAAUGAAGUAGAACAACAAUAGGAUAUGUAUAAAAGUAUACAUGAGGAUCACCCAUGUUACCAACAUGA , what is it?
## Result 9.34

## Task Repeat with CUGUACAUGAGGAUCACCCAUGUUAGACCAGCUUAAAAUAUAAGAAGGUUGAGGGCUUGACCAACAAAGGAUAUUAUGUGACCA
## Result 18.1

## Task Next up: AUAAAUAAUUCAGGAUAUUGCGAUCAAACAACAUGAGGAUCACCCAUGUCCGUAAACACAACAAGCAAGAAGGGAAAGAAUCAA
## Result 14.6

## Task CAUCCAACACAAGGAUAUUGGACGUUUUUCAGCGCACAUGAGGAUCACCCAUGUACAAGGGAGUACAAGAAGGUGUUUUGGAUC ?
## Result 9.49
